# test_summary: ATG_TCF_b_cat_CIS: Attagene CIS-FACTORIAL HepG2 Assay for human T-Cell-Factor with beta-catenin (TCF/b-cat) (AID 2282965)
# details: HepG2 TCF/beta-catenin cis-reporter transcription, actives raise or lower the signal
Calls of active or inactive are those of the source. The calls were made as follows: active = hit-call score of the fitted dose curve at least 0.9, where 1 is the maximum; inactive = score below 0.9.
Possible outcomes: active, inactive

- N[C@@H](Cc1c[nH]c2ccccc12)C(=O)O: inactive
- CCCCCCCCCCCCCCOS(=O)(=O)O: inactive
- CC(=O)[C@@]1(O)CC[C@H]2[C@@H]3CCC4=CC(=O)CC[C@]4(C)[C@H]3CC[C@@]21C: inactive
- O=C1c2c(O)cccc2Cc2cccc(O)c21: inactive
- CCCCC(CC)CO (centres undefined): inactive
- CCOCCOCCO: inactive
- CCCCCCC(C=O)=Cc1ccccc1: inactive
- CCCCCCCC(=O)OC: inactive
- CCCCc1nc2cccnc2n1Cc1ccc(-c2ccccc2-c2nnn[nH]2)cc1: inactive
- O=Cc1ccccc1C=O: inactive
- C#CC(O)C(CC)CCCC (centres undefined): active
- O=C1CCCCC1: inactive
- CC(C)OC(=O)C(C)(C)Oc1ccc(C(=O)c2ccc(Cl)cc2)cc1: inactive
- CC(C)(O)c1ccc(CNC(=O)c2cccnc2Oc2ccc(F)cc2)cc1: inactive
